tested on: ANGPTL3 protein; test: Example 7: serum ANGPTL3 protein by ELISA in mice; type: in vivo, C57bl/6 mice; design: key: ratio: (level/pre-treatment day -1 level) ÷ mean of D5W control group; details: Day 15, 0.5 mg/kg single SC injection on day 1, n=3
In the oligonucleotide strings, read from the 5' end, every base follows the letter of its sugar. An asterisk marks phosphorothioate; unmarked linkages are phosphodiester. Other units and linkages are bracketed, terminal groups are in braces. A string of capitals states the bases alone. {NAG37} = tridentate N-acetyl-galactosamine targeting ligand, structure (NAG37)s; [invAb] = inverted abasic unit; m = 2'-O-methyl; f = 2'-fluoro
Listed here are substances together with their documented Avg ANGPTL3, normalized to pre-treatment and control.
PROPERTY NAME: Avg ANGPTL3, normalized to pre-treatment and control

SUBSTANCE	RESULT
AD05777: RNAi agent duplex: antisense AM07235-AS, sense AM07610-SS (antisense UACUGAUCAAAUAUGUUGAGC; sense GCUCAACNUNUUUGAUCAGUA; (NAG37)s GalNAc ligand; RNAi agent antisense strand modified sequence; RNAi agent sense strand modified sequence; modified_base 8, 10 n = 2′-O-methyl-2-aminoadenosine-3′-phosphate)	0.246
AD05488: RNAi agent duplex: antisense AM07235-AS, sense AM07234-SS (antisense mU*fA*mC*fUmGfAmUfCmAfAmAfUmAfUmGfUmUfGmAfG*mC; sense {NAG37}*[invAb]*mGmCmUmCmAmAmCmAfUfAfUmUmUmGmAmUmCmAmGmUmA*[invAb])	0.379
AD05775: RNAi agent duplex: antisense AM07235-AS, sense AM07608-SS (antisense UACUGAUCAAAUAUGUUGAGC; sense GCUCAACAUNUUUGAUCAGUA; (NAG37)s GalNAc ligand; RNAi agent antisense strand modified sequence; RNAi agent sense strand modified sequence; modified_base 10 n = 2′-O-methyl-2-aminoadenosine-3′-phosphate)	0.232
AD05308: RNAi agent duplex: antisense AM07003-AS, sense AM07002-SS (chain 1 mU*fG*mU*fUmGfAmAfUmUfAmAfUmGfUmCfCmAfUmGfG*mA; chain 2 {NAG37}*[invAb]*mUmCmCmAmUmGmGmAfCfAfUmUmAmAmUmUmCmAmAmCmA*[invAb])	0.388
AD05418: RNAi agent duplex: antisense AM07159-AS, sense AM07158-SS (antisense mU*fU*mU*fGmAfAmUfUmAfAmUfGmUfCmCfAmUfGmGfG*mU; sense {NAG37}*[invAb]*mAmCmCmCmAmUmGmGfAfCfAmUmUmAmAmUmUmCmAmAmA*[invAb])	0.565

* * *

tested on: ANGPTL3 protein; experiment: Example 4: serum ANGPTL3 protein by ELISA in mice; assay type: in vivo, C57bl/6 mice; conditions: Day 8; 1.0 mg/kg single subcutaneous dose on day 1; serum; female C57bl/6 mice
In the oligonucleotide strings, read from the 5' end, every base follows the letter of its sugar. An asterisk marks phosphorothioate; unmarked linkages are phosphodiester. Other units and linkages are bracketed, terminal groups are in braces. A string of capitals states the bases alone. {NAG37} = tridentate N-acetyl-galactosamine targeting ligand, structure (NAG37)s; [invAb] = inverted abasic unit; m = 2'-O-methyl; f = 2'-fluoro
PROPERTY NAME: Avg ANGPTL3 (Average ANGPTL3 Protein Normalized to Pre-Treatment and Control)

SUBSTANCE	NUMERIC RESULT
AD05488: RNAi agent duplex: antisense AM07235-AS, sense AM07234-SS (antisense mU*fA*mC*fUmGfAmUfCmAfAmAfUmAfUmGfUmUfGmAfG*mC; sense {NAG37}*[invAb]*mGmCmUmCmAmAmCmAfUfAfUmUmUmGmAmUmCmAmGmUmA*[invAb])	0.090
AD05308: RNAi agent duplex: antisense AM07003-AS, sense AM07002-SS (chain 1 mU*fG*mU*fUmGfAmAfUmUfAmAfUmGfUmCfCmAfUmGfG*mA; chain 2 {NAG37}*[invAb]*mUmCmCmAmUmGmGmAfCfAfUmUmAmAmUmUmCmAmAmCmA*[invAb])	0.299
AD05418: RNAi agent duplex: antisense AM07159-AS, sense AM07158-SS (antisense mU*fU*mU*fGmAfAmUfUmAfAmUfGmUfCmCfAmUfGmGfG*mU; sense {NAG37}*[invAb]*mAmCmCmCmAmUmGmGfAfCfAmUmUmAmAmUmUmCmAmAmA*[invAb])	0.258
AD05487: RNAi agent duplex: antisense AM07233-AS, sense AM07232-SS (antisense mU*fA*mC*fUmGfAmUfCmAfAmAfUmAfUmGfUmUfGmAfG*mU; sense {NAG37}*[invAb]*mAmCmUmCmAmAmCmAfUfAfUmUmUmGmAmUmCmAmGmUmA*[invAb])	0.173

* * *

tested on: ANGPTL3 gene; assay: Example 7: serum total cholesterol in mice; format: in vivo, C57bl/6 mice; parameters: key: ratio: (level/pre-treatment day -1 level) ÷ mean of D5W control group; conditions: Day 15, 0.5 mg/kg single SC injection on day 1, n=3
In the oligonucleotide strings, read from the 5' end, every base follows the letter of its sugar. An asterisk marks phosphorothioate; unmarked linkages are phosphodiester. Other units and linkages are bracketed, terminal groups are in braces. A string of capitals states the bases alone. {NAG37} = tridentate N-acetyl-galactosamine targeting ligand, structure (NAG37)s; [invAb] = inverted abasic unit; m = 2'-O-methyl; f = 2'-fluoro
PROPERTY NAME: Avg Total Chol, normalized to pre-treatment and control

SUBSTANCE	RESULT
AD05777: RNAi agent duplex: antisense AM07235-AS, sense AM07610-SS (antisense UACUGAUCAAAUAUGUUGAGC; sense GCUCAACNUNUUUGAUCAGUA; (NAG37)s GalNAc ligand; RNAi agent antisense strand modified sequence; RNAi agent sense strand modified sequence; modified_base 8, 10 n = 2′-O-methyl-2-aminoadenosine-3′-phosphate)	0.800
AD05308: RNAi agent duplex: antisense AM07003-AS, sense AM07002-SS (chain 1 mU*fG*mU*fUmGfAmAfUmUfAmAfUmGfUmCfCmAfUmGfG*mA; chain 2 {NAG37}*[invAb]*mUmCmCmAmUmGmGmAfCfAfUmUmAmAmUmUmCmAmAmCmA*[invAb])	0.814
AD05418: RNAi agent duplex: antisense AM07159-AS, sense AM07158-SS (antisense mU*fU*mU*fGmAfAmUfUmAfAmUfGmUfCmCfAmUfGmGfG*mU; sense {NAG37}*[invAb]*mAmCmCmCmAmUmGmGfAfCfAmUmUmAmAmUmUmCmAmAmA*[invAb])	0.878

* * *

Listed here are substances together with their documented Avg HDL, normalized to pre-treatment and control.
System: ANGPTL3 gene
Assay: Example 7: serum HDL in mice
Type: in vivo
Set-up: key: ratio: (level/pre-treatment day -1 level) ÷ mean of D5W control group
Conditions: Day 22; 0.5 mg/kg single SC injection day 1; female C57bl/6 mice, n=3; ratio to D5W control
Experimental: To further assess the in vivo activity of additional ANGPTL3 RNAi agents that are designed to target position 304 on the ANGPTL3 gene, six- to eight-week-old female C57bl/6 mice were used. […] Each of the RNAi agents included a modified sequence and an N-acetyl-galactosamine-containing targeting ligand conjugated to the 5′ terminal end of the sense strand. […] ANGPTL3 protein levels in serum were measured by ELISA assay (R&D Systems), according to the manufacturer's recommendations. […]
In the oligonucleotide strings, read from the 5' end, every base follows the letter of its sugar. An asterisk marks phosphorothioate; unmarked linkages are phosphodiester. Other units and linkages are bracketed, terminal groups are in braces. A string of capitals states the bases alone. {NAG37} = tridentate N-acetyl-galactosamine targeting ligand, structure (NAG37)s; [invAb] = inverted abasic unit; m = 2'-O-methyl; f = 2'-fluoro
PROPERTY NAME: Avg HDL, normalized to pre-treatment and control

SUBSTANCE	TARGET ENTITY	NUMERIC RESULT
AD05418: RNAi agent duplex: antisense AM07159-AS, sense AM07158-SS (antisense mU*fU*mU*fGmAfAmUfUmAfAmUfGmUfCmCfAmUfGmGfG*mU; sense {NAG37}*[invAb]*mAmCmCmCmAmUmGmGfAfCfAmUmUmAmAmUmUmCmAmAmA*[invAb])	ANGPTL3 gene	0.910
AD05488: RNAi agent duplex: antisense AM07235-AS, sense AM07234-SS (antisense mU*fA*mC*fUmGfAmUfCmAfAmAfUmAfUmGfUmUfGmAfG*mC; sense {NAG37}*[invAb]*mGmCmUmCmAmAmCmAfUfAfUmUmUmGmAmUmCmAmGmUmA*[invAb])	ANGPTL3 gene	0.780
AD05775: RNAi agent duplex: antisense AM07235-AS, sense AM07608-SS (antisense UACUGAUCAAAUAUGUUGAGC; sense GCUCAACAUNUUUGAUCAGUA; (NAG37)s GalNAc ligand; RNAi agent antisense strand modified sequence; RNAi agent sense strand modified sequence; modified_base 10 n = 2′-O-methyl-2-aminoadenosine-3′-phosphate)	ANGPTL3 gene	0.736
AD05777: RNAi agent duplex: antisense AM07235-AS, sense AM07610-SS (antisense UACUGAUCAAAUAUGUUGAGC; sense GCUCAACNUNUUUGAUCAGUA; (NAG37)s GalNAc ligand; RNAi agent antisense strand modified sequence; RNAi agent sense strand modified sequence; modified_base 8, 10 n = 2′-O-methyl-2-aminoadenosine-3′-phosphate)	ANGPTL3 gene	0.801
